Values compiled from ChEMBL document CHEMBL1127376.

// each record: one item and its IC50 for Thromboxane A2 receptor (Homo sapiens, UniProt P21731)
property_label: IC50 (µM)

a: CC(/C(=N/OCCCCC(=O)O)c1ccccc1)n1ccnc1 (configuration not stated)
b: CS(=O)(=O)c1ccc(/C(=N\OCCCCC(=O)O)C(Cc2ccccc2)n2ccnc2)cc1 (configuration not stated)
Input pair: a , b . Output: entry with lower IC50. API: response body contains the label of the selected item.
b

1: O=C(O)CCCCO/N=C(\C1CCCCC1)C(Cc1ccccn1)n1ccnc1 (configuration not stated)
2: O=C(O)CCCCO/N=C(\c1ccccc1)C(Cc1ccccc1)n1ccnc1 (configuration not stated)
3: O=C(O)CCCCCO/N=C(/c1ccccc1)C(Cc1ccccc1)n1ccnc1 (configuration not stated)
4: C/C(=N\OCCCCC(=O)O)C(Cc1ccccc1)n1ccnc1 (configuration not stated)
Your job: order these 4 records by IC50, ascending. Show the ranking through the labels, in the order asked for.
2, 3, 1, 4
